Consider the following IC50 values measured on UniProt:Q15746.
Sequence (Q15746 whole entry): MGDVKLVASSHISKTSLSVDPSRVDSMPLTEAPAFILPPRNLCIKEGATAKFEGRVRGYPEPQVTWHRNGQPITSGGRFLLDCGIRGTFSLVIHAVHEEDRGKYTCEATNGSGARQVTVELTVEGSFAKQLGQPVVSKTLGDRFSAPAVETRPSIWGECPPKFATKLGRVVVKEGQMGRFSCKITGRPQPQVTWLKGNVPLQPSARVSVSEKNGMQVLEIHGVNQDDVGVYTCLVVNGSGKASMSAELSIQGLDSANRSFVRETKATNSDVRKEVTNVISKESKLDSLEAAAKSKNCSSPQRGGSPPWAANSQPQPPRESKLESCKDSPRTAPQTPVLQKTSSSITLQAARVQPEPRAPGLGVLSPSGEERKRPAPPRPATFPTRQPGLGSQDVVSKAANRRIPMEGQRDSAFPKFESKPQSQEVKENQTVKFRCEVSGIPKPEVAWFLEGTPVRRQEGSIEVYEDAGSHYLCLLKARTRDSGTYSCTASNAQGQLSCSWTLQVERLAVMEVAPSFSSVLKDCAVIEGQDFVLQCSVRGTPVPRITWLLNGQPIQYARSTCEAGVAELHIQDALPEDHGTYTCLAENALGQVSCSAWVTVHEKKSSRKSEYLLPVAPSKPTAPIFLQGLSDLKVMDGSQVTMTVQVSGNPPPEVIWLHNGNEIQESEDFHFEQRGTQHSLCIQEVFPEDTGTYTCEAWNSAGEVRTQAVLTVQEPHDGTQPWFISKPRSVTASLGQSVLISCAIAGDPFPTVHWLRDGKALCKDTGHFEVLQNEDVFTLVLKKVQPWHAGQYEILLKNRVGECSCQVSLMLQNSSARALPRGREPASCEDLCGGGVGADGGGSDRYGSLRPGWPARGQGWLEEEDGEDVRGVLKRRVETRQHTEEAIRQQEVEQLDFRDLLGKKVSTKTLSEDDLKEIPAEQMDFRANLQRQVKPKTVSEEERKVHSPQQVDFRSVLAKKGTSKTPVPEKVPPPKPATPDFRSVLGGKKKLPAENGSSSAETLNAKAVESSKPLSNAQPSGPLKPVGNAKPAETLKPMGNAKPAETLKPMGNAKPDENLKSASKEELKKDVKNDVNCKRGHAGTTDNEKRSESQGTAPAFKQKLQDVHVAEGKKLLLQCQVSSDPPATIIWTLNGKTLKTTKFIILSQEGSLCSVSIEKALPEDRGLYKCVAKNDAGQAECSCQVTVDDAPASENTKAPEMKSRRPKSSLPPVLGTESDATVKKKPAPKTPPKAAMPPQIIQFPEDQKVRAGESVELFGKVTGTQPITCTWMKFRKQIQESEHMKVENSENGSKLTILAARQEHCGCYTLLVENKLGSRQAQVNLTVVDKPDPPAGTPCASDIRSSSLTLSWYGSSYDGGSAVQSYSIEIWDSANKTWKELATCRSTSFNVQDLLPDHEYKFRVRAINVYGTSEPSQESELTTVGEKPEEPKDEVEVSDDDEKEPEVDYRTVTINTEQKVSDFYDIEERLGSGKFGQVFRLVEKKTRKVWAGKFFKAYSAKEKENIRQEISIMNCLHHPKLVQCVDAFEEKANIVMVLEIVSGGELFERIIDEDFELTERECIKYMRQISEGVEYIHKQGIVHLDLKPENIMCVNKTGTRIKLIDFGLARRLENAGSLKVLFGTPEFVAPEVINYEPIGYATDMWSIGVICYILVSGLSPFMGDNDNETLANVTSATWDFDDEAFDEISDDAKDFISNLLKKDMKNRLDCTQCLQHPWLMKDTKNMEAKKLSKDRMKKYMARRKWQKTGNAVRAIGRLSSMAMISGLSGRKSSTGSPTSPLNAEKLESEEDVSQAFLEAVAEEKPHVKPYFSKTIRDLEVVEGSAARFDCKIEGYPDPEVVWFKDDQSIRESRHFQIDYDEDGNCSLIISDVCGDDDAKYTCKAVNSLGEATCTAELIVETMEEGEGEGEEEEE

Entry under review: "CN1CCN(c2ccc(Nc3nc(-c4ccccc4F)nc4cn[nH]c34)cc2)CC1" . Reported IC50?
< 5 µM

Entry under review: "NS(=O)(=O)c1cccc(-c2nc(Nc3ccc4c(c3)NC(=O)CC4)c3[nH]ncc3n2)c1" . Reported IC50?
< 5 µM

Entry under review: "CN1CCN(C(=O)c2ccc(Nc3nc(-c4ccsc4)nc4cn[nH]c34)cc2)CC1" . Reported IC50?
< 5 µM

Entry under review: "c1csc(-c2nc(Nc3ccc4c(c3)NCCO4)c3[nH]ncc3n2)c1" . Reported IC50?
< 5 µM

Entry under review: "COc1ccc(Nc2nc(-c3cccs3)nc3cn[nH]c23)cc1OC" . Reported IC50?
< 5 µM

Entry under review: "CN1CCN(C2CCN(c3ccc(Nc4nc(-c5c(F)cccc5F)nc5cn[nH]c45)cc3)CC2)CC1" . Reported IC50?
< 5 µM

Entry under review: "O=S1(=O)CCN(c2ccc(Nc3nc(-c4ccsc4)nc4cn[nH]c34)cc2)CC1" . Reported IC50?
< 5 µM

Entry under review: "c1csc(-c2nc(Nc3ccc(CN4CCOCC4)cc3)c3[nH]ncc3n2)c1" . Reported IC50?
< 5 µM
